target: Mitogen-activated protein kinase 14 (Homo sapiens, UniProt Q16539); test: Inhibition of p38alpha MAPK
Sequence (Q16539 whole entry): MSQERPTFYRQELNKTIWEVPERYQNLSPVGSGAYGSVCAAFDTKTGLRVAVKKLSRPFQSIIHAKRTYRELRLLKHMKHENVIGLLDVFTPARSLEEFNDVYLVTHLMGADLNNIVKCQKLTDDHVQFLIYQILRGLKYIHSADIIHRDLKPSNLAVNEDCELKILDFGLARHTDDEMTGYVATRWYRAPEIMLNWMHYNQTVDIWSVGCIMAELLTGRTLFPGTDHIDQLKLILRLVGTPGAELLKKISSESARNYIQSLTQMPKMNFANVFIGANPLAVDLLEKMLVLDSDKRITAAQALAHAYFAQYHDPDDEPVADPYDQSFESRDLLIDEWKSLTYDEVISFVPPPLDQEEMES
Assay metric: IC50
Note: a bare number is incomplete; add the unit.

Ask | Answer with the recorded IC50 for the molecule listed here: COCn1c(-c2ccccc2)nc(-c2ccc(F)cc2)c1-c1ncnc2[nH]cnc12
Reply | 2.99 µM

Ask | Tell me measured IC50 for Fc1ccc(-c2nc(-c3ccccc3)[nH]c2-c2ncnc3[nH]cnc23)cc1 please.
Reply | 0.74 µM

Ask | # return recorded IC50 for entry Fc1ccc(-c2[nH]c(-c3ccccc3)nc2-c2ccnc3[nH]ccc23)cc1
Reply | 0.108 µM

Ask | // fetch IC50 given entry Fc1ccc(-c2nc(-c3ccccc3)[nH]c2-c2ncnc3[nH]ccc23)cc1
Reply | 2.6 µM

Reference source for all entries: ChEMBL document CHEMBL2176950
